Assay: Plasma pharmacokinetics after single oral dose of Δ8-THCV in MCT oil (LC-MS/MS, non-compartmental analysis)
Assay type: in vivo, human
Conditions: human, plasma, oral, 12.5 mg, 4 h; 12.5 mg Δ8-THCV dose; Median (IQ Range)
PARAMETER_MEASURED: concentration at 4 h (ng/mL)
Numeric answer only, unit ng/mL assumed.

Before answering, review these 2 worked examples.
CCCc1cc(O)c2c(c1)OC(C)(C)[C@@H]1CC=C(C)C[C@@H]21 [Δ8-THCV, Δ8-tetrahydrocannabivarin]
0.6
CCCc1cc(O)c2c(c1)OC(C)(C)[C@@H]1CC=C(CO)C[C@@H]21 (racemic) [11-OH-Δ8-THCV, (±)-11-hydroxy-Δ8-THCV]
0

**Q:** Supply measured concentration at 4 h of CCCc1cc(O)c2c(c1)OC(C)(C)[C@@H]1CCC(C)=C[C@@H]21 [Δ9-THCV, Δ9-tetrahydrocannabivarin] in your reply.
**A:** 0

**Q:** Give recorded concentration at 4 h. "CCCc1cc(O)c2c(c1)OC(C)(C)[C@@H]1CCC(C(=O)O)=C[C@@H]21"
**A:** 1.8

**Q:** Report concentration at 4 h, nothing else, for this compound: "CCCc1cc(O)c2c(c1)OC(C)(C)[C@@H]1CC=C(C(=O)O)C[C@@H]21"
**A:** 73.1

**Q:** Tell us which concentration at 4 h value is on record for CCCCCc1cc(O)c2c(c1)OC(C)(C)[C@@H]1CC=C(C(=O)O)CC21 (single isomer, unassigned; (+)) [Δ8-THC-COOH, (+)-11-nor-Δ8-THC-9-carboxylic acid]
**A:** 0

----------
Assay: Plasma pharmacokinetics after single oral dose of Δ8-THCV in MCT oil (LC-MS/MS, non-compartmental analysis)
Format: in vivo, human
Set-up: unit not given here
Conditions: 25 mg single oral Δ8-THCV in MCT oil; plasma; Mean (±SD)
// Clast (last quantifiable concentration) lookup, one value per entry

Worked examples, 3 molecules total:
CCCc1cc(O)c2c(c1)OC(C)(C)[C@@H]1CC=C(CO)C[C@@H]21 (racemic) [11-OH-Δ8-THCV, (±)-11-hydroxy-Δ8-THCV]
0.8 (±0.1)
CCCc1cc(O)c2c(c1)OC(C)(C)[C@@H]1CC=C(C(=O)O)C[C@@H]21
71.6 (±33.8)
CCCc1cc(O)c2c(c1)OC(C)(C)[C@@H]1CC=C(C)C[C@@H]21 [Δ8-THCV, Δ8-tetrahydrocannabivarin]
1.1 (±0.4)

**Q:** Provide one value: measured Clast (last quantifiable concentration) of "CCCc1cc(O)c2c(c1)OC(C)(C)[C@@H]1CCC(C(=O)O)=C[C@@H]21"
**A:** 2.6 (±1)

----------
Entries and their tlast (time to last quantifiable concentration)
Assay: Plasma pharmacokinetics after single oral dose of Δ8-THCV in MCT oil (LC-MS/MS, non-compartmental analysis)
Type: in vivo, human
Conditions: 200 mg single oral Δ8-THCV in MCT oil; plasma; Mean (±SD)
Method: The study was a two-phase, dose-ranging, placebo-controlled trial in 21 healthy participants to assess the safety, tolerability, PK, and PD of an oral formulation of Δ8-THCV. A detailed description of the study was published elsewhere. […] Plasma samples were analyzed using a validated high-performance liquid chromatography–tandem mass spectrometry (LC-MS/MS) assay. […] For the PK analysis, concentrations below the lower limit of quantification were set to 0 ng/mL. […]

CCCc1cc(O)c2c(c1)OC(C)(C)[C@@H]1CC=C(CO)C[C@@H]21 (racemic) [11-OH-Δ8-THCV, (±)-11-hydroxy-Δ8-THCV]
8 (±0)
CCCc1cc(O)c2c(c1)OC(C)(C)[C@@H]1CCC(C(=O)O)=C[C@@H]21
8 (±0)

Now consider a different compound.
**Q:** In one line, give reported tlast (time to last quantifiable concentration) of the entry CCCc1cc(O)c2c(c1)OC(C)(C)[C@@H]1CCC(C)=C[C@@H]21 [Δ9-THCV, Δ9-tetrahydrocannabivarin] .
**A:** 6.2 (±2.1)

----------
Test: Plasma pharmacokinetics after single oral dose of Δ8-THCV in MCT oil (LC-MS/MS, non-compartmental analysis)
Format: in vivo, human
Conditions: human, plasma, oral, 25 mg, 8 h; 25 mg Δ8-THCV dose; Median (IQ Range)
PARAMETER_MEASURED: concentration at 8 h (ng/mL)
Numeric answer only, unit ng/mL assumed.

Worked cases, concentration at 8 h given:
CCCc1cc(O)c2c(c1)OC(C)(C)[C@@H]1CC=C(C(=O)O)C[C@@H]21 [Δ8-THCV-COOH, 11-nor-9-carboxy-Δ8-THCV]
78.3
CCCc1cc(O)c2c(c1)OC(C)(C)[C@@H]1CC=C(C)C[C@@H]21 [Δ8-THCV, Δ8-tetrahydrocannabivarin]
0.3
CCCCCc1cc(O)c2c(c1)OC(C)(C)[C@@H]1CC=C(C(=O)O)CC21 (single isomer, unassigned; (+)) [Δ8-THC-COOH, (+)-11-nor-Δ8-THC-9-carboxylic acid]
0
CCCc1cc(O)c2c(c1)OC(C)(C)[C@@H]1CCC(C(=O)O)=C[C@@H]21 [Δ9-THCV-COOH, 11-nor-9-carboxy-Δ9-THCV]
2.3
CCCc1cc(O)c2c(c1)OC(C)(C)[C@@H]1CCC(C)=C[C@@H]21 [Δ9-THCV, Δ9-tetrahydrocannabivarin]
0

--- query ---
**Q:** Please list concentration at 8 h recorded for the compound CCCc1cc(O)c2c(c1)OC(C)(C)[C@@H]1CC=C(CO)C[C@@H]21 (racemic) [11-OH-Δ8-THCV, (±)-11-hydroxy-Δ8-THCV]
**A:** 0

----------
Overview of reported tlast (time to last quantifiable concentration) across a group of molecules:
Assay: Plasma pharmacokinetics after single oral dose of Δ8-THCV in MCT oil (LC-MS/MS, non-compartmental analysis)
Assay type: in vivo, human
Settings: 12.5 mg single oral Δ8-THCV in MCT oil; plasma; Median (Range)
Protocol: The study was a two-phase, dose-ranging, placebo-controlled trial in 21 healthy participants to assess the safety, tolerability, PK, and PD of an oral formulation of Δ8-THCV. A detailed description of the study was published elsewhere. […] Plasma samples were analyzed using a validated high-performance liquid chromatography–tandem mass spectrometry (LC-MS/MS) assay. […] For the PK analysis, concentrations below the lower limit of quantification were set to 0 ng/mL. […]

CCCc1cc(O)c2c(c1)OC(C)(C)[C@@H]1CC=C(CO)C[C@@H]21 (racemic) [11-OH-Δ8-THCV, (±)-11-hydroxy-Δ8-THCV]
4 (2–6)
CCCc1cc(O)c2c(c1)OC(C)(C)[C@@H]1CC=C(C(=O)O)C[C@@H]21
8 (8–8)
CCCc1cc(O)c2c(c1)OC(C)(C)[C@@H]1CC=C(C)C[C@@H]21 [Δ8-THCV, Δ8-tetrahydrocannabivarin]
5 (2–8)

API: the following record is the query input.
**Q:** Please report tlast (time to last quantifiable concentration) for the following molecule: "CCCc1cc(O)c2c(c1)OC(C)(C)[C@@H]1CCC(C(=O)O)=C[C@@H]21"
**A:** 8 (4–8)

----------
Listing of entries alongside the reported AUC(0-t).
Assay: Plasma pharmacokinetics after single oral dose of Δ8-THCV in MCT oil (LC-MS/MS, non-compartmental analysis)
Format: in vivo, human
Settings: human, plasma, po, 25 mg, 25 mg single oral Δ8-THCV in MCT oil; Median (Range)
Provide the reading as a plain figure in ng·h/mL.

Record excerpt, results attached:
CCCc1cc(O)c2c(c1)OC(C)(C)[C@@H]1CC=C(C)C[C@@H]21 [Δ8-THCV, Δ8-tetrahydrocannabivarin]
5.2
CCCc1cc(O)c2c(c1)OC(C)(C)[C@@H]1CC=C(C(=O)O)C[C@@H]21 [Δ8-THCV-COOH, 11-nor-9-carboxy-Δ8-THCV]
574
CCCc1cc(O)c2c(c1)OC(C)(C)[C@@H]1CC=C(CO)C[C@@H]21 (racemic) [11-OH-Δ8-THCV, (±)-11-hydroxy-Δ8-THCV]
0.8

**Q:** Please indicate AUC(0-t) recorded for CCCc1cc(O)c2c(c1)OC(C)(C)[C@@H]1CCC(C(=O)O)=C[C@@H]21 [Δ9-THCV-COOH, 11-nor-9-carboxy-Δ9-THCV]
**A:** 19.6

----------
List of concentration at 1 h values.
Experiment: Plasma pharmacokinetics after single oral dose of Δ8-THCV in MCT oil (LC-MS/MS, non-compartmental analysis)
Type: in vivo, human
Conditions: human, plasma, oral, 25 mg, 1 h; 25 mg Δ8-THCV dose; Mean (SD, %CV)
# number only, unit ng/mL dropped from output

Solved entries:
CCCc1cc(O)c2c(c1)OC(C)(C)[C@@H]1CCC(C)=C[C@@H]21 [Δ9-THCV, Δ9-tetrahydrocannabivarin]
0
CCCc1cc(O)c2c(c1)OC(C)(C)[C@@H]1CC=C(C)C[C@@H]21 [Δ8-THCV, Δ8-tetrahydrocannabivarin]
0.3

Could you now look at the following compound, please?
**Q:** Report concentration at 1 h, nothing else, for this compound: CCCc1cc(O)c2c(c1)OC(C)(C)[C@@H]1CC=C(CO)C[C@@H]21 (racemic) [11-OH-Δ8-THCV, (±)-11-hydroxy-Δ8-THCV]
**A:** 0.1
